Reference source: the supplement of paper PMC11246515

I'd be grateful if you could share measured total protein half-life in vivo for these entries.
- experiment-summary: total protein half-life in vivo (active degradation + dilution); higher = more stable protein
- reported-conditions: E. coli NCM3722 delta-smpB; growth: N-lim chemostat; doubling time 6 h
Please state the number and follow it with the unit.

// solved cases for total protein half-life in vivo follow
MIVLVTGATAGFGECITRRFIQQGHKVIATGRRQERLQELKDELGDNLYIAQLDVRNRAAIEEMLASLPAEWCNIDILVNNAGLALGMEPAHKASVEDWETMIDTNNKGLVYMTRAVLPGMVERNHGHIINIGSTAGSWPYAGGNVYGATKAFVRQFSLNLRTDLHGTAVRVTDIEPGLVGGTEFSNVRFKGDDGKAEKTYQNTVALTPEDVSEAVWWVSTLPAHVNINTLEMMPVTQSYAGLNVHRQ: 4.72 h
MKLFYKPGACSLASHITLRESGKDFTLVSVDLMKKRLENGDDYFAVNPKGQVPALLLDDGTLLTEGVAIMQYLADSVPDRQLLAPVNSISRYKTIEWLNYIATELHKGFTPLFRPDTPEEYKPTVRAQLEKKLQYVNEALKDEHWICGQRFTIADAYLFTVLRWAYAVKLNLEGLEHIAAFMQRMAERPEVQDALSAEGLK [P0A9D2]: 4.64 h

# next sequence below
// query total protein half-life in vivo value for entry `MKIFLENLYHSDCYFLPIRDNQQVLVGVELITHFSSEDGTVRIPTSRVIAQLTEEQHWQLFSEQLELLKSCQHFFIQHKLFAWLNLTPQVATLLLERDNYAGELLKYPFIELLINENYPHLNEGKDNRGLLSLSQVYPLVLGNLGAGNSTMKAVFDGLFTRVMLDKSFIQQQITHRSFEPFIRAIQAQISPCCNCIIAGGIDTAEILAQITPFDFHALQGCLWPAVPINQITTLVQR` 3.87 h
